Data credit: patent US20150191469A1

System: HIV
Test: MT4 assay: antiviral HIV activity (cell protection, cell titer glo readout at 96 hours)
Format: cell-based
Details: Human immunodeficiency virus 1, MT4, 96 h, MT4 cells, cell titer glo readout at 96 hours, 10 point dose response; read-out: HIV MT4 Assay IC50
reported-endpoint: IC50 (nM)
Number only, in nM; omit the unit.

Ask: Recorded IC50 for Cc1nc2c(cc(-c3nc(NC4CCOCC4)ns3)n2C)c(-c2cc(F)c3c(c2C)CCCO3)c1[C@H](OC(C)(C)C)C(=O)O , please?
Reply: 25.4

Ask: Try the compound Cc1nc2c(cc(-c3ccnc(C(=O)Nc4cnn(C)c4)c3)n2C)c(-c2cc(F)c3c(c2C)CCCO3)c1[C@H](OC(C)(C)C)C(=O)O (atropisomer, axis not shown)
Reply: 45.3

Ask: Try the compound Cc1nc2c(cc(-c3ccnc(N4CCN(C5CCCC5)CC4)c3)n2C)c(-c2cc(F)c3c(c2C)CCCO3)c1[C@H](OC(C)(C)C)C(=O)O (atropisomer, axis not shown)
Reply: 12.2
